All figures here come from paper PMC3700342.

test target: M. smegmatis alanine racemase (Mycolicibacterium smegmatis)
Sequence (P94967 1-389): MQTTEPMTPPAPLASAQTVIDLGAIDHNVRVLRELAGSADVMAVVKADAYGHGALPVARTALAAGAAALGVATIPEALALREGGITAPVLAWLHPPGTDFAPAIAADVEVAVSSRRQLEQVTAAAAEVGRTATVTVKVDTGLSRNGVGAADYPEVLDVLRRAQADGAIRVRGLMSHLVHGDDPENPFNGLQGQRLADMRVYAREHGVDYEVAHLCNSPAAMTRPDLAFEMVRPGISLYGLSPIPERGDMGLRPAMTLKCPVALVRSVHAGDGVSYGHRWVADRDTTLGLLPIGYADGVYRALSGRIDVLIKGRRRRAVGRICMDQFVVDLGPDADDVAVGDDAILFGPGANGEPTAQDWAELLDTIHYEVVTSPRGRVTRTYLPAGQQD
pIC50: −log10 of the molar value.

[
  {
    "molecular string": "N[C@@H]1CON=C1O",
    "test target": "M. smegmatis alanine racemase (Mycolicibacterium smegmatis)",
    "pIC50": "< 4.00"
  }
]
